test system: HOP-92; experiment: NCI tumour cell line growth inhibition, 48 h
The source made the active and inactive calls. Rule as the data show it: active = GI50 up to about 1.1 µM and inactive = higher.
Write down the outcome that applies. Available outcomes: active, inactive

Use these answered entries as a reference point.
>  <compound>
CN(C)CCOc1ccc(-c2c(Oc3ccccc3)c(=O)oc3ccccc23)cc1

>  <target-desc>
HOP-92

>  <label-value>
inactive

$$$$
>  <compound>
CCOc1ccccc1/N=N/c1c(-c2ccccc2)nn(C(=O)CC(=O)Nc2cccc(Cl)c2)c1-c1ccccc1

>  <target-desc>
HOP-92

>  <label-value>
inactive

$$$$

Ask: For "COc1ccc(OC)c(-c2cn3c(n2)sc2ccccc23)c1" , which call appears in the assay record?
Reply: inactive

Ask: For "CC(=O)Oc1c2ccsc2c(OC(C)=O)c2ccsc12" , which call appears in the assay record?
Reply: active

Ask: For "Cc1nc(Nc2nc3ccccc3[nH]2)[nH]c(=O)c1CCO" , which call appears in the assay record?
Reply: inactive

====

test system: COLO 205; test: NCI tumour cell line growth inhibition, 48 h
Active and inactive are the calls of the source. No stated cut-off is given here; in the data, active = GI50 up to about 1.1 µM and inactive = higher. Where a SMILES comes first, the peptide text is derived from it. The star is where a group is joined. Fmoc = O=C(OCC1c2ccccc2-c2ccccc21)*; Boc = CC(C)(C)OC(=O)*
measured-endpoint: GI50

The following compounds have reported results that may help.
>  <compound>
CCN(CC)C(c1ccc(N(C)C)cc1)C(c1ccc(N(C)C)cc1)N(CC)CC (stereo unspecified)

>  <measured-endpoint>
GI50

>  <result>
43.3 µM (inactive)

$$$$
>  <compound>
Cn1c2c3ccccc3nc-2c(O)c2ccccc21 [HYDROXYCRYPTOLEPINE]

>  <measured-endpoint>
GI50

>  <result>
83.2 µM (inactive)

$$$$
>  <compound>
CN1CCC(O)(C(C)(C)C)CC1

>  <measured-endpoint>
GI50

>  <result>
> 100 µM (inactive)

$$$$
>  <compound>
COC(=O)C(C(=O)C(=O)Nc1ccccc1C(C)=O)c1nc2ccc(Cl)cc2nc1O (stereo unspecified)

>  <measured-endpoint>
GI50

>  <result>
> 100 µM (inactive)

$$$$
>  <compound>
O=C(Nc1nc2ncn(CCI)c2c(=O)[nH]1)c1ccccc1

>  <measured-endpoint>
GI50

>  <result>
> 100 µM (inactive)

$$$$

// for each compound below, give its GI50
1. CCCCc1c2c(nc3c1CCc1cc(C=O)c(N)nc1-3)/C(=C/c1ccccc1)CCC2
2. Cc1c(CCN=P(c2ccccc2)(c2ccccc2)c2ccccc2)c(=O)n2c([nH]c3ccccc32)c1C#N
3. NC(=O)COc1c(Br)cc(Br)cc1Br
4. CC(C)(C)OC(=O)NCCCCC(NC(=O)OCC1c2ccccc2-c2ccccc21)C(=O)N1CCCC1C(=O)NCC(N)=O (stereo not drawn) (Fmoc-Lys(Boc)-Pro-Gly-NH2; configuration not given here)
5. CCc1n[nH]c(=O)n1/N=C(\C)c1ccccc1
6. CC(=O)Nc1ccc(Nc2cc(O)nc(O)n2)cc1

Reply:
17 µM (inactive)
> 10 µM (inactive)
> 100 µM (inactive)
28.4 µM (inactive)
> 100 µM (inactive)
> 100 µM (inactive)

====

tested on: HL-60; assay: NCI tumour cell line growth inhibition, 48 h
The source made the active and inactive calls. Cut-off read from the data, not from the text of the source: active = GI50 up to about 1.1 µM and inactive = higher.
Write down the outcome that applies. Available outcomes: y for active, n for inactive

Use these answered entries as a reference point.
>  <molecule>
COC1=CC(=O)c2c(cc(COP(=O)(OCC3OC(n4cc(F)c(=O)[nH]c4=O)CC3O)N(C)CCCCCl)n2C)C1=O (stereo not given)

>  <label-value>
y

$$$$
>  <molecule>
O=C(O)c1c(-c2nccc3ccccc23)[nH]c(-c2ccccc2)c1S(=O)(=O)O

>  <label-value>
n

$$$$

Ask: For CCOC(=O)CCC(NC(=O)c1ccc(OCc2ccc3nc(-c4ccccc4)c(Cl)nc3c2)cc1)C(=O)OCC (stereo not given) , which call appears in the assay record?
Reply: n

Ask: For "Cc1ccc(-n2cc(/C(N)=N/O)c3ccccc3c2=O)cc1" , which call appears in the assay record?
Reply: n

Ask: For "CN1CCC(O)(C(C)(C)C)CC1" , which call appears in the assay record?
Reply: n

====

tested on: SK-OV-3; assay: NCI tumour cell line growth inhibition, 48 h
Calls of active or inactive are those of the source. Rule as the data show it: active = GI50 up to about 1.1 µM and inactive = higher.
Write down the outcome that applies. Available outcomes: active, inactive

>  <compound>
C/C(CN1C(=O)c2ccccc2C1=O)=N\NS(=O)(=O)c1ccc(C)cc1

>  <label-value>
inactive

$$$$

Kindly consider the entry below.
Ask: For O=C(Nc1ccccc1)N1N=C(c2ccccc2)C1c1ccccc1 (stereo not drawn) , which call appears in the assay record?
Reply: inactive

====

system: UO-31; test: NCI tumour cell line growth inhibition, 48 h
Calls of active or inactive are those of the source. No stated cut-off is given here; in the data, active = GI50 up to about 1.1 µM and inactive = higher.
Write down the outcome that applies. Available outcomes: active, inactive

>  <compound>
Cn1c2c3ccccc3nc-2c(O)c2ccccc21 [HYDROXYCRYPTOLEPINE]

>  <target-desc>
UO-31

>  <label-value>
inactive

$$$$
>  <compound>
COC1C(O)CC(OC2C(C)OC(Oc3cc(O)c4c(O)c5c(cc4c3)C[C@@H]([C@H](OC)C(=O)[C@@H](O)[C@@H](C)O)[C@H](OC3CC(OC4CC(OC6CC(C)(O)C(O)C(C)O6)C(O)C(C)O4)C(O)C(C)O3)C5=O)CC2OC(C)=O)OC1C (some centres undefined)

>  <target-desc>
UO-31

>  <label-value>
inactive

$$$$
>  <compound>
S=c1sc2ccccc2n1CN1CCN(Cc2ccccc2)CC1

>  <target-desc>
UO-31

>  <label-value>
inactive

$$$$
>  <compound>
COC(=O)CCN(CCC(=O)OC)C1CC1

>  <target-desc>
UO-31

>  <label-value>
inactive

$$$$
>  <compound>
S=c1nc(Nc2ccc(Br)cc2)c2c3c(sc2[nH]1)CN(N1CCc2c(sc4[nH]c(=S)nc(Nc5ccc(Br)cc5)c24)C1)CC3

>  <target-desc>
UO-31

>  <label-value>
inactive

$$$$
>  <compound>
CCCCC/C=C1\CCC(CN2CCOCC2)C1=O (centres undefined)

>  <target-desc>
UO-31

>  <label-value>
inactive

$$$$
>  <compound>
CN(C)CCCN1c2ccc3ccccc3c2Sc2cccc(Cl)c21

>  <target-desc>
UO-31

>  <label-value>
inactive

$$$$
>  <compound>
CN(C)CCNc1ccc2nnn3c4ccc(Cl)cc4c(=O)c1c23

>  <target-desc>
UO-31

>  <label-value>
inactive

$$$$
>  <compound>
N[C@H]1C2C3CC4C5CC(C42)C1(c1ccccc1)C53 (some centres undefined)

>  <target-desc>
UO-31

>  <label-value>
inactive

$$$$
>  <compound>
OCc1nnn2c1CCC2

>  <target-desc>
UO-31

>  <label-value>
inactive

$$$$

Ask: For O=C(Nc1ccccc1)N1N=C(c2ccccc2)C1c1ccccc1 (centres undefined) , which call appears in the assay record?
Reply: inactive

Ask: For CCOC(=O)[C@@H]1ON2O[C@@H](OC3CCCC3(c3ccccc3)c3ccccc3)C[C@H]3OC(=O)[C@@H]1C32 (some centres undefined) , which call appears in the assay record?
Reply: inactive

Ask: For NC(Cn1ccc(=O)c(O)c1)C(=O)O (centres undefined) , which call appears in the assay record?
Reply: inactive

Ask: For "COc1ccc(Nc2nc(N)c(C(=O)c3ccc(Cl)cc3)s2)cc1" , which call appears in the assay record?
Reply: active

Ask: For "C/C=C1\NC(=O)[C@H]2CSSCCC=C[C@H](CC(=O)N[C@H](C(C)C)C(=O)N2)OC(=O)[C@H](C(C)C)NC1=O" , which call appears in the assay record?
Reply: active

Ask: For "COc1c2c(cc3occ(-c4ccc(CC=C(C)C)cc4)c(=O)c13)OC(C)(C)C=C2" , which call appears in the assay record?
Reply: inactive

Ask: For "CN(C)C(=S)/N=c1\ss/c(=N\S(=O)(=O)c2ccccc2)n1-c1ccccc1" , which call appears in the assay record?
Reply: inactive

Ask: For O=C(CC1(O)C(=O)Nc2ccccc21)c1cccc(O)c1 (centres undefined) , which call appears in the assay record?
Reply: inactive

Ask: For "N=C(N)NCCCS(=O)(=O)Nc1ccc(Nc2c3ccccc3nc3cc([N+](=O)[O-])ccc23)cc1" , which call appears in the assay record?
Reply: inactive

====

tested on: LXFL 529; assay: NCI tumour cell line growth inhibition, 48 h
Active and inactive are the calls of the source. Rule as the data show it: active = GI50 up to about 1.1 µM and inactive = higher.
Would you kindly list GI50 for each of these compounds?

The following compounds have reported results that may help.
>  <compound>
Clc1ccc2c(Cl)ncnc2c1I

>  <target-desc>
LXFL 529

>  <result>
34 µM (inactive)

$$$$
>  <compound>
COc1cc2c(c(O)c1C)C(=O)C(Cl)=CC2=O

>  <target-desc>
LXFL 529

>  <result>
7.43 µM (inactive)

$$$$
>  <compound>
CN1C(=O)CN2C(Cl)(Cl)C2(c2ccccc2)c2cc(Cl)ccc21 (centres undefined)

>  <target-desc>
LXFL 529

>  <result>
> 100 µM (inactive)

$$$$
>  <compound>
c1cncc(C2N3CCCCC3[C@@H]3c4[nH]c5ccccc5c4CCN23)c1 (some centres undefined)

>  <target-desc>
LXFL 529

>  <result>
> 100 µM (inactive)

$$$$
>  <compound>
CCCOc1ccc(/C=C\c2cc(OC)c(OC)c(OC)c2)cc1

>  <target-desc>
LXFL 529

>  <result>
52.8 µM (inactive)

$$$$
>  <compound>
C/N=N/N(C)C(=O)NC

>  <target-desc>
LXFL 529

>  <result>
> 100 µM (inactive)

$$$$

// for each compound below, give its GI50
1. CC(O)C(NC(=O)c1ccccc1)C(=O)N(Cc1ccccc1)Cc1ccccc1 (centres undefined)
2. CC(=O)OC1CCC2C(=CCC3C2(C)C(=O)CC2(C)C(C4(C)OC(C(C)C)=CC4=O)C(O)CC32C)C1(C)C (centres undefined)
3. CCc1cccc(C)c1NC(=O)C(=O)Cc1nc2ccccc2s1
4. COc1ccc(/C(=C/n2ccnc2)C(=O)c2ccc(OC)c(OC)c2)cc1
5. Oc1nc(-c2ccccc2)cc(-c2ccccc2O)n1
6. CCOC(=O)N1CCc2cc(OC)c(OC)c3c2c1cc1cc(OC)c(OC)cc13

Reply:
> 100 µM (inactive)
31.3 µM (inactive)
> 100 µM (inactive)
> 100 µM (inactive)
50.4 µM (inactive)
3.78 µM (inactive)

// for each compound below, give its GI50
1. Cc1c(-c2coc(-c3ccc(Cl)cc3)n2)c(=O)n(-c2ccccc2)n1C
2. CCOC(=O)NC/C=C/CO
3. CC1=[N+]([O-])c2ccccc2C(=O)C1=O
4. CCCCCCN(CCCCCC)C(=S)N/N=C(\C)c1ccccn1
5. COC(COC(N)=O)C1=C(N2CC2)C(=O)C(C)=C(N2CC2)C1=O (centres undefined)

Reply:
> 100 µM (inactive)
> 100 µM (inactive)
> 100 µM (inactive)
0.208 µM (active)
0.196 µM (active)

// for each compound below, give its GI50
1. CCCCCCCCCCCCCCCC/C(C(=O)OC)=C(/O)C(=O)OCC
2. Cc1cc(N(CCC#N)CCC#N)ccc1/C=C(\NC(=O)/C=C/c1ccccc1)NC(=O)Nc1ccc(Cl)cc1

Reply:
1: > 100 µM (inactive); 2: 0.652 µM (active)
